assay: NCI Yeast Anticancer Drug Screen. Data for the mlh1 rad18 strain (AID 175); details: S. cerevisiae mlh1 rad18 strain growth inhibition; at 5.0 µM (retest, dose inferred, filed as 0.5); active compounds read high
Compounds without any hit were thinned out: in the full panel of roughly 79,000, 15% have a hit.
Measured growth inhibition values are reported for all entries that follow.
Answer in %, number only, no unit symbol.

Please review the entries below; each comes with its answer.
{"MOLECULE": "CCSC(=O)/C=C1\\CN(C(=O)OC(C)(C)C)C1C(=O)OC(C)(C)C (centres undefined)", "growth inhibition / %": -15}
{"MOLECULE": "CC1=C(C(=O)Nc2ccccc2)C(c2cc(Cl)cc(Cl)c2)C(C(=O)Nc2ccccc2)=C(C)N1", "growth inhibition / %": -4}
{"MOLECULE": "NC(=O)NOC(=O)c1ccccc1", "growth inhibition / %": 21}
{"MOLECULE": "O=C1OC2(c3ccc(O)cc3Oc3cc(O)ccc32)c2c1c(-c1ccccc1)c(-c1ccccc1)c(-c1ccccc1)c2-c1ccccc1", "growth inhibition / %": 6}
{"MOLECULE": "CC(C)SC(=S)Nc1cc(Cl)c(Cl)cc1Cl", "growth inhibition / %": 1}
{"MOLECULE": "CC(=O)OC12CCC3C4CC=C5CC(O)CCC5(C)C4C(=O)C3C1(C)N1CC(C)CC(O)C1C2C (centres undefined)", "growth inhibition / %": -23}
{"MOLECULE": "CC1(c2ccccc2)Nc2ccccc2C1=Nc1ccccc1 (centres undefined)", "growth inhibition / %": -2}
{"MOLECULE": "C[CH2][Sn]([CH2]C)([O]C(=O)c1cc(OC)c(OC)c(OC)c1)[O][Sn]([CH2]C)([CH2]C)[O]C(=O)c1cc(OC)c(OC)c(OC)c1", "growth inhibition / %": 27}

Next, consider the following molecule.
Fill blank: measured growth inhibition of the molecule COC(=O)C1(NC(=O)C(CC(=O)OCc2ccccc2)NC(=O)OCc2ccccc2)CCCCCC1 (centres undefined) is ____. -3

* * *

Measured growth inhibition values are reported for all entries that follow.
assay: NCI Yeast Anticancer Drug Screen. Data for the mec2-1 strain (AID 157); details: S. cerevisiae mec2-1 strain, at 5.0 µM (retest, dose inferred, filed as 0.5), active compounds read high
Compounds without any hit were thinned out: in the full panel of roughly 79,000, 15% have a hit.
Answer in %, number only, no unit symbol.

Please review the entries below; each comes with its answer.
{"COMPOUND": "CCOC(=O)n1c2ccccc2c(=O)n1CCO", "UNIT_OF_MEASUREMENT": "%", "NUMERIC_RESULT": -16}
{"COMPOUND": "Oc1ccc(Cl)cc1Cc1cc(Cl)cc(Cc2cc(Cl)ccc2O)c1O", "UNIT_OF_MEASUREMENT": "%", "NUMERIC_RESULT": 1}
{"COMPOUND": "Oc1c(Br)ccc2c(O)c(Br)ccc12", "UNIT_OF_MEASUREMENT": "%", "NUMERIC_RESULT": 51}

Fill blank: measured growth inhibition of the compound CCC(C1SC(=S)NC1=O)C1SC(=S)NC1=O (configuration not stated) is ____. -1

Fill blank: measured growth inhibition of the compound O=C(O)C(CCc1cccc2ccccc12)c1ccccc1 (configuration not stated) is ____. 2

Fill blank: measured growth inhibition of the compound C=CCc1ccc2c(C)cc[n+](C)c2c1O is ____. 19

Fill blank: measured growth inhibition of the compound N#CCCN(C(=S)Nc1ccc(Cl)c(Cl)c1)C1CCCCC1 is ____. 0

Fill blank: measured growth inhibition of the compound O=C(OC1C=C=CS(=O)(=O)CC#C/C=C\1)c1cnc2ccccc2n1 (configuration not stated) is ____. -17

Fill blank: measured growth inhibition of the compound CN=C(N)N/N=C(\C)c1ccc2c(ccc3ccccc32)c1 is ____. 14

Fill blank: measured growth inhibition of the compound Oc1cccc(/C=C/c2ccncc2)c1 is ____. -4

Fill blank: measured growth inhibition of the compound ClC1(Cl)C(Cl)(Cl)C12c1ccccc1-c1ccccc12 is ____. -26

Fill blank: measured growth inhibition of the compound O=C(O)c1ccc(C(=O)c2ccccc2C(=O)O)cc1 is ____. -5
